Test system: OVCAR-4 ovarian
Test: NCI-60 one-dose screen, 48 h (100 = growth as untreated, 0 = no growth, -100 = all killed)
Conditions: 10 µM unless noted
This is part of a sample that, as a whole, favours compounds with a hit. Of some 83,000 tested, about 20% had one in any assay.
y if growth is below 60%. n if not; exact matches included in n.

# compound, tested.target, label.value
measured = [
    ("CCCCc1nc(Cl)c(C2CC(c3ccc(S(N)(=O)=O)cc3)=NN2c2ccc(C#N)cc2)[nH]1 (stereo unspecified)", "OVCAR-4 ovarian", "n"),
    ("CSc1nc(N)c2[nH]c(-c3cc4ccccc4[nH]c3=O)nc2n1", "OVCAR-4 ovarian", "n"),
    ("COc1ccc(/C=C(\\C#N)c2cc(OC)c(OC)c(OC)c2)cc1", "OVCAR-4 ovarian", "y"),
    ("Cc1nn(-c2cccc(Cl)c2)c(C)c1N=Nc1ccc(Br)cc1", "OVCAR-4 ovarian", "n"),
    ("COc1cc(Cl)cc(-c2nn(C(=O)NCCN3CCOCC3)cc2-c2ccncc2)c1", "OVCAR-4 ovarian", "n"),
    ("O/N=C1\\c2ccccc2-c2ccc(Br)cc21", "OVCAR-4 ovarian", "n"),
    ("CC(C)(C)[Si](C)(C)OC1[C@@H](O[Si](C)(C)C(C)(C)C)[C@@H](CNC(=O)NC(=O)NC(=O)CCl)O[C@H]1n1cnc2c(NC(=O)Nc3ccccc3)ncnc21 (stereo partly specified)", "OVCAR-4 ovarian", "y"),
    ("Cc1cc(N)cc(C)c1-c1c(Br)cc(N)cc1Br", "OVCAR-4 ovarian", "n"),
    ("CS(=O)(=O)c1ccc(C(=O)N/N=C/c2ccccc2Cl)cc1", "OVCAR-4 ovarian", "n"),
    ("CC(=O)Cc1ccccn1", "OVCAR-4 ovarian", "n"),
    ("COc1ccc2[nH]cc(C3(c4c[nH]c5ccc(OC)cc45)C(=O)Nc4ccc(Cl)cc43)c2c1", "OVCAR-4 ovarian", "n"),
    ("CC1CCCN(CCCCOc2ccc(-c3ccc(C#N)cc3)cc2)C1 (stereo unspecified)", "OVCAR-4 ovarian", "n"),
    ("c1cc2c(cc1-c1cnc3nonc3n1)OCO2", "OVCAR-4 ovarian", "n"),
    ("c1ccc(-c2nnn(-c3ccccc3)n2)cc1", "OVCAR-4 ovarian", "n"),
    ("COC(=O)OC1C(O[C@H]2C[C@H]3[C@@H]4CC=C5C[C@@H](O)CC[C@]5(C)[C@H]4CC[C@]3(C)[C@H]2[C@H](C)C(=O)CCC(C)C)OCC(O)C1OC1OCC(O)C(O)C1OC(=O)c1ccc(OC)cc1 (stereo partly specified)", "OVCAR-4 ovarian", "y"),
    ("Cc1nn(-c2ccccc2)c2nc3c(nc12)C1=NCCN1C(c1ccc(Cl)cc1)N3 (stereo unspecified)", "OVCAR-4 ovarian", "n"),
    ("O=C(CCCN1CCC(O)(c2ccc(Br)cc2)CC1)c1ccc(F)cc1", "OVCAR-4 ovarian", "n"),
    ("COc1cccc(N2CCN(c3ncnc4cc[nH]c34)CC2)c1", "OVCAR-4 ovarian", "n"),
]
